Quick list: z-score per entry.
Test: basal RPMI8226 mitochondrial membrane potential changes, profiling panel, cell-based, JC-1 fluorescence, 24 h, 100 nL compound (AID 1169); also: test concentration not given here
Settings: RPMI8226 myeloma, JC-1 mitochondrial potential fluorescence, higher = more signal

molecule.smiles	z-score
COCCOC(=O)N1C(=O)[C@@]2(c3cc(C#CC4(O)CCCCCC4)ccc31)[C@H](C(=O)N1CCCCCCC1)[C@H]1C(=O)O[C@H](c3ccccc3)[C@H](c3ccccc3)N1[C@@H]2c1ccc(OCCO)cc1	-0.693
CON(C)C(=O)C=C1C[C@@H](c2cccc(Cl)c2)O[C@@H](c2cccc(Cl)c2)O1	-1.09
CCCc1cccc(=O)o1	-0.417
CC(C)(C)OC(=O)CC[C@]1(C(=O)NCCN2CCOCC2)N=C(c2ccc(OCCCO)cc2)O[C@H]1c1ccccc1N=[N+]=[N-]	-0.683
COC(=O)C[C@H]1O[C@]2(C(=O)N(C)c3ccccc32)[C@@H](C)[C@@H]1[Si](C)(C)c1ccc(C)cc1	-0.991

----------
Quick list: composite z-score per entry.
Target: Fibroblast growth factor 10 (Homo sapiens)
Assay: FGF10 binders on small-molecule microarrays, primary screen, biochemical, small-molecule microarray, 635 nm fluorescence (AID 1102)
Conditions: FGF10 binding, fluorescence 635 nm, higher = more signal
readout.label: composite z-score

compound	readout.number
Cc1c(NC(=O)/C(C#N)=C/C=C/c2ccccc2[N+](=O)[O-])c(=O)n(-c2ccccc2)n1C	0.386
COC(=O)[C@@]1(Cc2ccc(F)cc2)[C@H]2c3cc(C(=O)N4CCCC4)n(CCc4c[nH]c5ccc(OC)cc45)c3C[C@H]2CN1C(=O)c1ccccc1	1.53
COC(=O)[C@@]1(Cc2ccc(OC)cc2)[C@H]2c3cc(C(=O)N4CCCC4)n(CCc4cc5ccccc5[nH]4)c3C[C@H]2CN1C(=O)c1ccccc1	0.893
COC(=O)C(CC#Cc1ccc2c(c1)[C@]1(C(=O)N2)[C@H](C(=O)O)[C@H]2C(=O)O[C@H](c3ccccc3)[C@H](c3ccccc3)N2[C@@H]1c1ccccc1OCCO)C(=O)OC	1.19
COc1ccc(C(O)C2C=CC3C(=O)N(Cc4ccccc4)C(=O)C3N2n2cnnc2)c2ccccc12 (centres undefined)	-1.12
O=c1cccc(-c2ccc(C(F)(F)F)cc2)o1	-0.46
O=C1NCC(=O)N2[C@@H]1C[C@@H](C(=O)O)[C@H]2c1ccc(O)cc1	0.944
COCCCNC(=O)[C@@H]1c2ccccc2C(=O)N(Cc2ccccc2C(F)(F)F)[C@H]1c1ccc(CO)cc1	-0.0537
CCOC(=O)C[C@H]1[C@H](OC(=O)c2ccc(-c3ccccc3)cc2)[C@@H](NC(=O)C2CCCCC2)c2cc(OCCCO)ccc2N1C(=O)c1ccccc1	0.616
O=C1C[C@@](C(=O)NCC(F)(F)F)(c2ccc([N+](=O)[O-])cc2)[C@@H](c2ccc(CO)cc2)N1C1CCCCC1	0.86
CCCCC(CC)C(O)C1C=CC2C(=O)N(c3ccccc3)C(=O)C2N1Nc1ccc([N+](=O)[O-])cc1 (centres undefined)	1.01
CC(C)C(=C=CC[C@H](O)c1ccc(OCCO)cc1)C[C@H](O)c1cc(Cl)cc(Cl)c1O	0.893
CC(=O)NCCCC[C@@H]1NC(=O)[C@@H]2C[C@H](C(=O)O)[C@H](c3ccc(O)cc3)N2C1=O	-0.947
C=CCOC(=O)[C@H]1[C@@H]2C(=O)O[C@@H](c3ccccc3)[C@@H](c3ccccc3)N2[C@@H](c2ccc(OCCOC(=O)[C@H]3C[C@H]4C(=O)N[C@@H](Cc5ccccc5)C(=O)N4[C@H]3c3cccc(OCCO)c3)cc2)[C@]12C(=O)Nc1ccc(I)cc12	1.24

----------
Quick list: z-score per entry.
Assay: basal RPMI8226 viability, no added stimulus, profiling panel, cell-based, calcein-AM fluorescence, 48 h, PK04 Diversity Set (AID 1166);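 also: cells grown under basal conditions without added stimulus; test concentration not given here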
Settings: RPMI8226 myeloma viability, higher = more signal

compound	z-score
C=C(C(=O)CC[C@H](OC(=O)c1cccnc1)c1ccc(CO)o1)C(C)C	0.202
CN1C(=O)C2C=CC(C(O)c3c(F)cccc3Cl)N(Nc3ccccc3)C2C1=O (configuration not stated)	-1.42
C=CCN1C(=O)[C@@]2(O[C@@H](CCn3cc([C@H](O)c4ccccc4)nn3)[C@H]([Si](C)(C)c3ccc(OC)cc3)[C@H]2C)c2ccccc21	-4.27
COCCOC(=O)N1C(=O)[C@@]2(c3cc(C#Cc4ccc(OC)cc4)ccc31)[C@H](C(=O)N1CCCCCCC1)[C@H]1C(=O)O[C@H](c3ccccc3)[C@H](c3ccccc3)N1[C@@H]2c1ccc(O)cc1	-0.943
O=C1c2ccccc2[C@](Cc2ccccc2I)(C(=O)NCc2ccccc2)[C@H](c2ccc(CO)cc2)N1C1CCCCC1	-1.99
COc1ccc([Si](C)(C)[C@@H]2[C@@H](CCO)O[C@]3(C(=O)N(Cc4cccc(N5C(=O)c6cccc7cccc5c67)c4)c4ccccc43)[C@H]2C)cc1	-4.25
CC(C)C(=C=CC[C@@H](O)c1ccccc1OCCO)C[C@@H](O)COCc1ccccc1	-0.399

----------
Experiment: binders of probe aFST on microarray, primary screen, stem cell growth factor project, biochemical, small-molecule microarray, fluorescence 635/667 (AID 1086);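 also: score merges 667 nm fluorescence with signal-to-noise of each printed compound spot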
Conditions: higher = more signal
readout.label: composite z-score

compound	readout.number
C=C(COC)/C(=C/C[C@@H](OC(=O)c1ccncc1)c1ccc(OCCO)cc1)c1cnc2ccccc2c1	0.28
CC1CC/C=C\[C@H]2OC34C=CCN(c5ccc6ccccc6c5)C(=O)[C@H]3N(C(CO)C(C)C)C(=O)[C@@H]4C2C(=O)O1 (stereo partly drawn)	-0.25
C=CCOC(=O)[C@H]1[C@@H]2C(=O)O[C@@H](c3ccccc3)[C@@H](c3ccccc3)N2[C@@H](c2ccc(OCCOC(=O)[C@H]3C[C@H]4C(=O)N[C@@H](CCCC[N+](C)(C)C)C(=O)N4[C@H]3c3cccc(OCCO)c3)cc2)[C@]12C(=O)Nc1ccc(I)cc12	-0.278

----------
Biological target: Torsin-1A-interacting protein 1 (Homo sapiens) (UniProt Q5JTV8)
Sequence (Q5JTV8 whole entry, looked up): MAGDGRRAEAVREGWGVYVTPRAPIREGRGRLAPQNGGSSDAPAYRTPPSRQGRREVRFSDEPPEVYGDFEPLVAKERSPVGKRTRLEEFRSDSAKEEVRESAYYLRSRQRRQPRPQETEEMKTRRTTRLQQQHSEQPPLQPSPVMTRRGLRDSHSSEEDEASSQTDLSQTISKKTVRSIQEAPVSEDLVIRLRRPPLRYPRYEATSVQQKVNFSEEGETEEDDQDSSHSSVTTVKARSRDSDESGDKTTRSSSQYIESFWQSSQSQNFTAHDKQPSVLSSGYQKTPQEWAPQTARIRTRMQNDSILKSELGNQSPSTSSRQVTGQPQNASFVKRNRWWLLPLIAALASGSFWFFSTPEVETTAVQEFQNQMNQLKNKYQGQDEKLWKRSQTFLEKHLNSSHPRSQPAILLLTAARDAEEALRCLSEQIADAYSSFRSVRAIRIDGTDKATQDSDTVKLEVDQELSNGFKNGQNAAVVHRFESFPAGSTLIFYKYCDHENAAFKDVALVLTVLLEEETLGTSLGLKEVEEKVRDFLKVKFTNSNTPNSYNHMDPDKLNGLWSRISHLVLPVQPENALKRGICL
Experiment: LAP1 binders from COS7 cell lysate, primary screen, small-molecule microarray, 635/667 nm fluorescence (AID 1116)
Settings: COS7-hLAP1 lysate binding, 635 nm fluorescence, higher = more signal
Quick list: composite z-score per entry.

molecule	target.desc	composite z-score
COCCOC(=O)N1C(=O)[C@@]2(c3cc(C#CC4(O)CCCCCC4)ccc31)[C@H](C(N)=O)[C@H]1C(=O)O[C@H](c3ccccc3)[C@H](c3ccccc3)N1[C@@H]2c1ccc(O)cc1	Torsin-1A-interacting protein 1 (Homo sapiens) (UniProt Q5JTV8)	0.0793
O=C1OCC=C[C@H]2OC34C=CCN(Cn5nnc6ccccc65)C(=O)[C@H]3N(CCCCCCO)C(=O)[C@@H]4[C@@H]12 (some centres undefined)	Torsin-1A-interacting protein 1 (Homo sapiens) (UniProt Q5JTV8)	3.14
O=C1NC(=O)C2C1C=CC(C(O)c1ccc3c(c1)OCO3)N2Nc1ccccn1 (centres undefined)	Torsin-1A-interacting protein 1 (Homo sapiens) (UniProt Q5JTV8)	0.493
COCCOC(=O)N1C(=O)[C@@]2(c3ccccc31)[C@H](c1ccc(OCCO)cc1)N1[C@H](c3ccccc3)[C@H](c3ccccc3)OC(=O)[C@H]1[C@@H]2C(=O)Nc1nc2ccccc2s1	Torsin-1A-interacting protein 1 (Homo sapiens) (UniProt Q5JTV8)	0.903

----------
Target: Carbonic anhydrase 2 (Homo sapiens) (UniProt P00918)
Test: CAII small-molecule binders, profiling panel, biochemical, small-molecule microarray, Alexa647-labelled CAII (AID 1122)
Conditions: CAII-A647 binding fluorescence, higher = more signal
Quick list: composite z-score per entry.

molecule	composite z-score
Cc1ccc(F)cc1S(=O)(=O)N[C@@H]1CCN(Cc2ccc(Oc3ccccc3)cc2)C1	0.304
CC(C)CNC(=O)[C@@H]1c2ccccc2C(=O)N(Cc2cc(F)cc(C(F)(F)F)c2)[C@H]1c1ccc(CO)cc1	0.411
COc1ccc([Si](C)(C)[C@H]2[C@H](CCO)O[C@@]3(C(=O)N(Cc4cccc(N5CCCCC5=O)c4)c4ccccc43)[C@@H]2C)cc1	0.394
O=C(N1CCCCC1)[C@@]1(Cc2ccccc2)COC(c2ccc(OCCCO)cc2)=N1	0.714
COC(=O)[C@@]1(Cc2ccccc2)[C@H]2c3cc(C(=O)N4CCCC4)n(Cc4cc(F)cc5c4OCOC5)c3C[C@H]2CN1C(=O)c1ccccc1	0.553
NCCCCCCNC(=O)[C@H]1C[C@H]2C(=O)N[C@@H](Cc3ccccc3)C(=O)N2[C@H]1c1ccc(O)cc1	0.778
COC(=O)C[C@H]1O[C@]2(C(=O)N(C)c3ccccc32)[C@@H](C)[C@@H]1[Si](C)(C)c1ccc(C)cc1	0.0614
COC(=O)c1c(CC[C@@H](CO)NC(=O)N[C@H](Cn2cc(-c3ccccc3C)nn2)C(C)C)oc(C(C)=O)c1C(=O)OC	0.0708
O=C1NCC(=O)N2[C@@H]1C[C@@H](C(=O)O)[C@H]2c1ccc(O)cc1	0.165
CCCCN1CC=CC23O[C@@H]4C=CCOC(=O)[C@@H]4[C@H]2C(=O)N(C(C)CO)[C@@H]3C1=O (stereo not given in full)	0.904
NC(=O)NCC#Cc1ccc2c(c1)[C@]1(C(=O)N2)[C@H](c2ccc(O)cc2)N2[C@H](c3ccccc3)[C@H](c3ccccc3)OC(=O)[C@H]2[C@@H]1C(=O)Nc1nc2ccccc2s1	0.431
CCOC(=O)C1=CC[C@@H](c2ccccc2C(F)(F)F)N(S(=O)(=O)c2ccc(C)cc2)C1	0.411
COCCOC(=O)N1C(=O)[C@@]2(c3cc(C#Cc4ccc(OC)cc4)ccc31)[C@H](C(=O)N1CCCCCCC1)[C@H]1C(=O)O[C@H](c3ccccc3)[C@H](c3ccccc3)N1[C@@H]2c1ccc(O)cc1	0.168
CC(=O)N1Cc2ccccc2C[C@]2(N=C(c3ccc(OCCCO)cc3)O[C@@H]2c2ccccc2)C1=O	0.552
COC(=O)[C@@]1(Cc2ccccc2)[C@H]2c3cc(C(=O)N4CCCC4)n(Cc4ccsc4Br)c3C[C@H]2CN1C(=O)c1ccccc1	0.555
